Target: CDK7/cyclin H/MAT1 complex (Homo sapiens (Human))
Assay: In vitro enzymatic inhibitory activity test, CDK7
Conditions: Caliper mobility shift, 180 min at 27° C.
Method: CDK7/CyclinH was diluted in a test buffer solution (20 mM MES PH6.75, 0.01% Tween20, 50 ug/mL BSA, 6 mM MgCl2) to obtain a corresponding enzyme solution with a 2.4× concentration. […] Electrophoretic separation was performed on Caliper EZ Reader II by means of a fluorogenic substrate and a phosphorylated product to analyze the reaction mixture. Data were calculated by using GraphPad Prism version 6.0. […]
pIC50: −log10 of the molar value.
Answer not met if pIC50 is under 8, and met if it is 8 or more.

Ask | Exam item: decide whether the reported pIC50 for FC(F)(F)c1cnc(N[C@H]2CCCNC2)nc1-c1c[nH]c2nc(N3CCC4(CCOC4)CC3)ccc12 is at least 8.
Reply | not met

Ask | Given FC(F)(F)c1cnc(N[C@H]2CCCNC2)nc1-c1c[nH]c2nc(N3CC4(CCCOC4)C3)ccc12 , state whether its pIC50 is at least 8.
Reply | not met

Ask | # check: pIC50 of FC(F)(F)c1cnc(N[C@H]2CCCNC2)nc1-c1c[nH]c2nc(C3CCOC3)ccc12 (single isomer, unassigned) [Compound 108] is greater than or equal to 8
Reply | met

Ask | Check the entry C[C@H]1CC[C@H](Nc2ncc(C(F)(F)F)c(-c3c[nH]c4nc(N5CCOC[C@@H]5C)ccc34)n2)CN1 : does pIC50 equal or exceed 8?
Reply | not met

Ask | Is pIC50 for FC(F)(F)c1cnc(N[C@@H]2CN3CCC2CC3)nc1-c1c[nH]c2nc(N3CCOCC3)ccc12 at or above 8?
Reply | not met

---

target: CDK2/cyclin E1 complex (Homo sapiens (Human)); assay: In vitro enzymatic inhibitory activity test, CDK2; format: biochemical; conditions: Caliper mobility shift, 180 min at 27° C.
property-name: pIC50
# pIC50 is unitless: minus log10 of the molar concentration; print number only

Ask | Entry FC(F)(F)c1cnc(N[C@H]2CCCNC2)nc1-c1c[nH]c2nc(N3CCCOCC3)ccc12 [Compound 22] needs its pIC50 filled in; supply it.
Reply | 5.52

Ask | Report pIC50 for FC(F)(F)c1cnc(N[C@H]2CCCNC2)nc1-c1c[nH]c2nc(N3CCC4(CCOC4)CC3)ccc12 [Compound 9]
Reply | 5.14

Ask | // fetch pIC50 given entry FC(F)(F)c1cnc(N[C@H]2CCCNC2)nc1-c1c[nH]c2nc(N3CC4(CCOC4)C3)ccc12 [Compound 11]
Reply | 5.19

Ask | Look up and report measured pIC50 for this entry: FC(F)(F)c1cnc(N[C@H]2CCCNC2)nc1-c1c[nH]c2nc(N3CC4(COC4)C3)ccc12 [Compound 14]
Reply | 5.48

Ask | Return the recorded pIC50 value; entry: FC(F)(F)c1cnc(N[C@H]2CCCNC2)nc1-c1c[nH]c2nc(N3C4COCC3C4)ccc12 [Compound 103]
Reply | 5.55

Ask | Identify pIC50 associated with the molecule FC(F)(F)c1cnc(N[C@H]2CCCNC2)nc1-c1c[nH]c2nc(N3CCC4(CC3)COC4)ccc12 [Compound 15]
Reply | 5.38

---

target: CDK7/cyclin H/MAT1 complex (Homo sapiens (Human), UniProt P50613); experiment: In vitro enzymatic inhibitory activity test, CDK7; conditions: Caliper mobility shift, 180 min at 27° C.
Sequence (P50613 whole entry, species assumed): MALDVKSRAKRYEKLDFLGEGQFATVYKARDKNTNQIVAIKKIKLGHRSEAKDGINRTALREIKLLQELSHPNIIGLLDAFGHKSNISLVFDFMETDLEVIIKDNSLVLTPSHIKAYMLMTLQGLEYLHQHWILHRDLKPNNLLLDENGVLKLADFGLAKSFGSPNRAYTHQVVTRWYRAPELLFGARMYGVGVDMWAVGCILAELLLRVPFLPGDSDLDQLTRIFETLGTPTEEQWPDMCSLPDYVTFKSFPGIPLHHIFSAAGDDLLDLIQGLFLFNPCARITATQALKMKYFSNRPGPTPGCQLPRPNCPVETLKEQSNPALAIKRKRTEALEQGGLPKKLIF
Sequence (P51946 whole entry partner, species assumed): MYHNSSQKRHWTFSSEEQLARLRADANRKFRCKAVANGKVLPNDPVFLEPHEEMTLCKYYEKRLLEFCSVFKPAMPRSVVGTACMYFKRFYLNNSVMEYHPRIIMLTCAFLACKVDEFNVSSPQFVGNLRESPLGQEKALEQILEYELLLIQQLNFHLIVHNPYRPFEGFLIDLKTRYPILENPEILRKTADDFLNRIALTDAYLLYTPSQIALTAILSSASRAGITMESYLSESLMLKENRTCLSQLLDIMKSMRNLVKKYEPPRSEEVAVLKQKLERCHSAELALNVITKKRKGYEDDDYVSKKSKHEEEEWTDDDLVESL
Sequence (P51948 whole entry partner, species assumed): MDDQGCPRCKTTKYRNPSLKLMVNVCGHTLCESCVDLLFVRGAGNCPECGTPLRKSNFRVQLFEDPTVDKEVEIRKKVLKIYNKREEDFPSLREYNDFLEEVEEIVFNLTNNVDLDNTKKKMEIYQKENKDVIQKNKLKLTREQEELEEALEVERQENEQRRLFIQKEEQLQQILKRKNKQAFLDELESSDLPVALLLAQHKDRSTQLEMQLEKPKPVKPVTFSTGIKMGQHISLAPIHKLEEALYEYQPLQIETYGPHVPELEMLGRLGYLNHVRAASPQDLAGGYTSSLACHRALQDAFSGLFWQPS
Structures can show the parent of a compound that is named as a salt.
property-name: pIC50
The meaning of pIC50 here: minus log10 of the concentration in molar units.

Ask | // output pIC50; input C[C@@H]1COCCN1c1ccc2c(-c3nc(N[C@H]4CCCNC4)ncc3C(F)(F)F)c[nH]c2n1 ; system CDK7/cyclin H/MAT1 complex (Homo sapiens (Human), UniProt P50613)
Reply | 6.80

Ask | Fill: pIC50 (CDK7/cyclin H/MAT1 complex (Homo sapiens (Human), UniProt P50613)) for this molecule FC(F)(F)c1cnc(N[C@H]2CCCNC2)nc1-c1c[nH]c2nc(N3CC4(COC4)C3)ccc12
Reply | 8.15

Ask | State recorded pIC50 with CDK7/cyclin H/MAT1 complex (Homo sapiens (Human), UniProt P50613), entry FC(F)(F)c1cnc(N[C@H]2CCCNC2)nc1-c1c[nH]c2nc(N3CCN(C4COC4)CC3)ccc12 , no comment.
Reply | 7.76

Ask | Give measured pIC50 for FC(F)(F)c1cnc(N[C@H]2CCCNC2)nc1-c1c[nH]c2nc(N3CCC4(CC3)COC4)ccc12 (CDK7/cyclin H/MAT1 complex (Homo sapiens (Human), UniProt P50613)).
Reply | 7.78

Ask | Find the measured pIC50 of C[C@H]1COCCN1c1ccc2c(-c3nc(N[C@H]4CCC(C)(C)NC4)ncc3C(F)(F)F)c[nH]c2n1 with CDK7/cyclin H/MAT1 complex (Homo sapiens (Human), UniProt P50613) as test system.
Reply | 8.02

Ask | Give the observed pIC50 of FC(F)(F)c1cnc(N[C@H]2CCCNC2)nc1-c1c[nH]c2nc(C3CCOC3)ccc12 (single isomer, unassigned) [Compound 107] for CDK7/cyclin H/MAT1 complex (Homo sapiens (Human), UniProt P50613).
Reply | 8.19

Ask | Report pIC50 under test system CDK7/cyclin H/MAT1 complex (Homo sapiens (Human), UniProt P50613) for C[C@@H]1CNC[C@@H](Nc2ncc(C(F)(F)F)c(-c3c[nH]c4nc(N5CCOC[C@@H]5C)ccc34)n2)C1 .
Reply | 8.02

Ask | Please tell me the measured pIC50 for FC(F)(F)c1cnc(N[C@H]2CCCNC2)nc1-c1c[nH]c2nc(N3CC4CCC3CO4)ccc12 (stereo partly drawn) ; system: CDK7/cyclin H/MAT1 complex (Homo sapiens (Human), UniProt P50613).
Reply | 7.70

Ask | Give pIC50 only, for FC(F)(F)c1cnc(N[C@H]2CCCNC2)nc1-c1c[nH]c2nc(C34CCOCC3C4)ccc12 (stereo partly drawn) [Compound 31, formate] , using CDK7/cyclin H/MAT1 complex (Homo sapiens (Human), UniProt P50613) data.
Reply | 8.09

---

Provide the recorded IC50 for the entries that follow.
molecular target: CDK7/cyclin H/MAT1 complex (Homo sapiens (Human), UniProt P50613); assay: In vitro enzymatic inhibitory activity test, CDK7; settings: Caliper mobility shift, 180 min at 27° C.
Value expressed in nM; do not type the unit.

Ask | Provide IC50 value for the following molecule: C[C@H]1COCCN1c1ccc2c(-c3nc(N[C@@H]4CNC[C@@H](F)C4)ncc3C(F)(F)F)c[nH]c2n1
Reply | 11.5

Ask | Note down IC50 recorded for CC1COCCC1c1ccc2c(-c3nc(N[C@H]4CCCNC4)ncc3C(F)(F)F)c[nH]c2n1 (some centres unmarked)
Reply | 3.48

Ask | Recall and state the measured IC50 for FC(F)(F)c1cnc(N[C@H]2CCCNC2)nc1-c1c[nH]c2nc(N3CCCC4(CCOC4)C3)ccc12 (some centres unmarked) .
Reply | 24.3

Ask | Identify measured IC50 corresponding to FC(F)(F)c1cnc(N[C@H]2CCCNC2)nc1-c1c[nH]c2nc(N3CCC4(CCO4)CC3)ccc12
Reply | 10.8

Ask | Read off the recorded IC50 for FC(F)(F)c1cnc(N[C@H]2CCCNC2)nc1-c1c[nH]c2nc(N3CCOC[C@@H]3C(F)(F)F)ccc12
Reply | 46.8

Ask | Find the measured IC50 of FC(F)(F)c1cnc(N[C@H]2CCCNC2)nc1-c1c[nH]c2nc(N3CC4(CCOC4)C3)ccc12 and report it.
Reply | 27.8

Ask | Give IC50 for the following molecule: FC(F)(F)c1cnc(N[C@H]2CCCNC2)nc1-c1c[nH]c2nc(N3CCCOCC3)ccc12
Reply | 7.05

Ask | Respond only with IC50 recorded for FC(F)(F)c1cnc(N[C@H]2CCCNC2)nc1-c1c[nH]c2nc(C3CCCCO3)ccc12 (some centres unmarked) [Compound 113]
Reply | 4.76

Ask | Query IC50 for FC(F)(F)c1cnc(N[C@H]2CCCNC2)nc1-c1c[nH]c2nc(N3C[C@H]4C[C@@H]3CO4)ccc12
Reply | 10.4

Ask | In one line, give reported IC50 of the entry FC(F)(F)c1cnc(N[C@H]2CCCNC2)nc1-c1c[nH]c2nc(C3=CCCCO3)ccc12 .
Reply | 5.62

Ask | Name the recorded IC50 of the item FC(F)(F)c1cnc(N[C@H]2CCCNC2)nc1-c1c[nH]c2cc(N3CCCC3)ccc12 [Compound 101, reference compound] in your answer.
Reply | 28.5

---

target: CDK12(aa686-1082)/cyclin K complex (Homo sapiens (Human), UniProt Q9NYV4); test: In vitro enzymatic inhibitory activity test, CDK12; conditions: Caliper mobility shift, 180 min at 27° C.
Sequence (Q9NYV4 686-1082, species assumed): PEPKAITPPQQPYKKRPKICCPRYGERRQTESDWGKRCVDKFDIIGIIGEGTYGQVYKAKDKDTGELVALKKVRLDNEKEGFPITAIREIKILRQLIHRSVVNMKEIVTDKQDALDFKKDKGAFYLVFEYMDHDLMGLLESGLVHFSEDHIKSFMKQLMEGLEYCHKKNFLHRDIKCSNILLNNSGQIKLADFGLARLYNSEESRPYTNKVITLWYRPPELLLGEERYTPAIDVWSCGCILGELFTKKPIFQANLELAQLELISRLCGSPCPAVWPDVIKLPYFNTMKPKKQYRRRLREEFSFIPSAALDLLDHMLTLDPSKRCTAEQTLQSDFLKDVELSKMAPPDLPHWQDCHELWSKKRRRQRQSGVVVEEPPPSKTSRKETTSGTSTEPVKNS
Sequence (O75909 whole entry partner, species assumed, the tested form may be a part): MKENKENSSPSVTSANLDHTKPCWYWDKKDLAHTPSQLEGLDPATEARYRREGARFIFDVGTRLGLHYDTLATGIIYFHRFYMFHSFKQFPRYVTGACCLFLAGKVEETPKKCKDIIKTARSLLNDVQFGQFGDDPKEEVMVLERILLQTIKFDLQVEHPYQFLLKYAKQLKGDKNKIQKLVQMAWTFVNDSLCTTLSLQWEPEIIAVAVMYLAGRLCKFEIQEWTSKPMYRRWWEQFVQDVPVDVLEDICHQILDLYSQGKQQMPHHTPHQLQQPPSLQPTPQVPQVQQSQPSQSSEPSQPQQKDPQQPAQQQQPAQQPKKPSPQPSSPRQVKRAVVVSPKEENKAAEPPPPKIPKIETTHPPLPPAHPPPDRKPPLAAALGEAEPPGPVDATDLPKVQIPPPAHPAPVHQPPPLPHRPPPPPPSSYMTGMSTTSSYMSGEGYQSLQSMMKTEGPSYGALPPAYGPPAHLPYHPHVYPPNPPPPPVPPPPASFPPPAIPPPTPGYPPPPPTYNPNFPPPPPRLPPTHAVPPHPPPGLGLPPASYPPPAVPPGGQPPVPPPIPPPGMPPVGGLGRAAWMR
Exercise: state measured pIC50 for each of the compounds provided.
Keep in mind that pIC50 stands for -log10 of concentration in molar terms.

Ask | Give pIC50 for this entry on CDK12(aa686-1082)/cyclin K complex (Homo sapiens (Human), UniProt Q9NYV4): C[C@H]1CNC[C@@H](Nc2ncc(C(F)(F)F)c(-c3c[nH]c4nc(N5CCOC[C@@H]5C)ccc34)n2)C1
Reply | 5.59

Ask | Name the value of pIC50 reported for CC1(C#N)CN(c2ccc3c(-c4nc(N[C@H]5CCCNC5)ncc4C(F)(F)F)c[nH]c3n2)C1 when tested on CDK12(aa686-1082)/cyclin K complex (Homo sapiens (Human), UniProt Q9NYV4).
Reply | 6.09

Ask | Find pIC50 for C[C@H]1COCCN1c1ccc2c(-c3nc(N[C@@H]4CNC[C@H](F)C4)ncc3C(F)(F)F)c[nH]c2n1 on CDK12(aa686-1082)/cyclin K complex (Homo sapiens (Human), UniProt Q9NYV4) and write it down.
Reply | 4.92

Ask | Param request: pIC50 | system CDK12(aa686-1082)/cyclin K complex (Homo sapiens (Human), UniProt Q9NYV4) | item OC1CCN(c2ccc3c(-c4nc(N[C@H]5CCCNC5)ncc4C(F)(F)F)c[nH]c3n2)CC1
Reply | 6.17

Ask | Quote CDK12(aa686-1082)/cyclin K complex (Homo sapiens (Human), UniProt Q9NYV4) pIC50 for entry C[C@@H]1CNC[C@@H](Nc2ncc(C(F)(F)F)c(-c3c[nH]c4nc(N5CCOC[C@@H]5C)ccc34)n2)C1 .
Reply | 4.89

Ask | Give measured pIC50 for C[C@H]1COCCN1c1ccc2c(-c3nc(N[C@@H]4CNCC(F)(F)C4)ncc3C(F)(F)F)c[nH]c2n1 (CDK12(aa686-1082)/cyclin K complex (Homo sapiens (Human), UniProt Q9NYV4)).
Reply | 5.18

Ask | Determine reported pIC50 for CC1COCCC1c1ccc2c(-c3nc(N[C@H]4CCCNC4)ncc3C(F)(F)F)c[nH]c2n1 (some centres unmarked) ; test system: CDK12(aa686-1082)/cyclin K complex (Homo sapiens (Human), UniProt Q9NYV4).
Reply | 5.79

Ask | Lab note: CDK12(aa686-1082)/cyclin K complex (Homo sapiens (Human), UniProt Q9NYV4) assay, enter pIC50 for FC(F)(F)c1cnc(N[C@H]2CCCNC2)nc1-c1c[nH]c2nc(N3CC4CC(C3)O4)ccc12 here
Reply | 5.96

Ask | State pIC50 (CDK12(aa686-1082)/cyclin K complex (Homo sapiens (Human), UniProt Q9NYV4)) of FC(F)(F)c1cnc(N[C@H]2CCCNC2)nc1-c1c[nH]c2nc(N3CCN(C4COC4)CC3)ccc12 .
Reply | 5.70

Ask | Under CDK12(aa686-1082)/cyclin K complex (Homo sapiens (Human), UniProt Q9NYV4): report pIC50 of FC(F)(F)c1cnc(N[C@H]2CCCNC2)nc1-c1c[nH]c2nc(N3CC4(CCOC4)C3)ccc12 .
Reply | 5.71

Ask | Return reported pIC50 for target or system CDK12(aa686-1082)/cyclin K complex (Homo sapiens (Human), UniProt Q9NYV4), item FC(F)(F)c1cnc(N[C@H]2CCCNC2)nc1-c1c[nH]c2nc(N3C[C@@H]4C[C@H]3CO4)ccc12 .
Reply | 5.58

Ask | Give the observed pIC50 of C[C@H]1COCCN1c1ccc2c(-c3nc(N[C@@H]4CNC[C@@H](F)C4)ncc3C(F)(F)F)c[nH]c2n1 for CDK12(aa686-1082)/cyclin K complex (Homo sapiens (Human), UniProt Q9NYV4).
Reply | 5.47

Ask | Please respond with reported pIC50 (system CDK12(aa686-1082)/cyclin K complex (Homo sapiens (Human), UniProt Q9NYV4)) for C[C@@H]1OCC2(CCN(c3ccc4c(-c5nc(N[C@H]6CCCNC6)ncc5C(F)(F)F)c[nH]c4n3)CC2)[C@@H]1N .
Reply | 5.93
